assay: cytosolic pH regulators acting via V-ATPase – S. cerevisiae, pHLuorin, HTS validation (AID 504600); conditions: V-ATPase proton transport, at 10 µM, active compounds read high;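 further: plate controls were DMSO for no effect and reference compound for full effect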
experimental_readout: response (%)

compound=COC(=O)c1[nH]c(=O)c2ccccc2c1O numeric_readout=2.12
compound=CCCCN(CCCC)CCCOC(=O)c1ccc(N)cc1 numeric_readout=-2.47
compound=NC(=O)[C@@H]1[C@@H]2C(=O)N(c3ccc(F)cc3)C(=O)[C@@H]2[C@H]2C=Cc3ccccc3N21 numeric_readout=-0.45
compound=Cc1nc2cc3ccccc3cc2c(=O)[nH]1 numeric_readout=1.08
compound=CC(C)(S)[C@@H](N)C(=O)O numeric_readout=0.19
compound=COc1ccc(NS(=O)(=O)c2ccc(N)cc2)nn1 numeric_readout=3.89
compound=Cc1ccc2c(c1)c(C)cc(=O)n2CCC(=O)O numeric_readout=1.4
compound=Cn1c(Oc2ccc3c(c2)OCO3)nc2c1c(=O)n(Cc1ccccc1)c(=O)n2C numeric_readout=-0.9
compound="COC(=O)CN1C(=S)N(c2ccc(F)cc2)C(=O)C1CC(=O)Nc1ccccc1 (stereo not drawn)" numeric_readout=0.96
compound=COc1cccc(/C=C/C(=O)c2c(O)cc(C)oc2=O)c1O numeric_readout=2.77
compound=NC(N)=NC(N)=Nc1ccc2ccccc2c1 numeric_readout=-3.32
compound=C[N+](C)(C)CCCCCCCCCC[N+](C)(C)C numeric_readout=0.2
compound=CCOC(=O)C(=Cc1ccccc1OC)C(=O)OCC numeric_readout=0.91
compound="COc1cccc(CC2CC(=O)N(c3ccc4c(C)cc(=O)oc4c3)C2=O)c1 (stereo not drawn)" numeric_readout=8.95
compound=Cc1ccc(N2CCN(C(=S)c3ccc(-c4cccc([N+](=O)[O-])c4)o3)CC2)cc1 numeric_readout=-4.54
compound=COc1ccc(-c2nc(NC(C)=O)sc2-c2ccc(OC)cc2)cc1 numeric_readout=0.09
compound=Cc1cc(C)nc(NS(=O)(=O)c2ccc(N)cc2)n1 numeric_readout=-1.72
compound=O=c1nc2sc3ccccc3n2c(=O)n1-c1ccc(Cl)cc1 numeric_readout=1.03
compound=CC(C)(C)C(=O)NC(=S)NNC(=O)c1ccncc1 numeric_readout=2.56
compound="Cc1ccc2c(c1)C1(C(=O)N2)N2CCCC2C(C(=O)c2ccc3ccccc3c2)C12C(=O)Nc1ccccc12 (stereo not drawn)" numeric_readout=2.26
compound=C#C[C@]1(O)CC[C@H]2[C@@H]3CCC4=CC(=O)CC[C@@H]4[C@H]3CC[C@@]21CC numeric_readout=1.52
compound=CCOC(=O)C(=O)N1CCN(c2ccccc2OC)CC1 numeric_readout=-4.83
compound=COc1cc2[nH]c3c(=O)n(CCN4CCOCC4)cnc3c2cc1OC numeric_readout=-1.31

----------
Recorded inhibition, one value per entry.
molecular target: ATP-binding cassette sub-family B member 6 (Homo sapiens); experiment: blockers of ABCB6-driven porphyrin uptake – K562-ABCB6 cells, flow cytometry, validation set, pilot screen (AID 588550); details: K562-ABCB6 porphyrin accumulation, 1 h, at 10 µM, active compounds read high;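 further: 0% = DMSO wells and 100% = benzethonium chloride 70 µM positive control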
experimental_readout: inhibition (%)

compound="COc1cc(C2Nc3ccccc3NC3=C2C(=O)CC(c2ccc(OC)c(OC)c2)C3)ccc1O (configuration not stated)" experimental_readout=inhibition numeric_readout=11
compound="CC1=NN(C(=O)c2ccc(Br)cc2)C(O)(c2ccccc2)C1 (configuration not stated)" experimental_readout=inhibition numeric_readout=-9
compound=COc1ccc2[nH]c(=O)c(CNC3CCCCC3)cc2c1 experimental_readout=inhibition numeric_readout=-1
compound=COc1ccc2c(c1)c(=O)oc1cc3occ(C(C)(C)C)c3cc12 experimental_readout=inhibition numeric_readout=0
compound=O=C(N/N=C\c1cc([N+](=O)[O-])ccc1N1CCOCC1)c1ccccn1 experimental_readout=inhibition numeric_readout=-1
compound=O=C(/C=C/c1c[nH]c2ccccc12)c1cccc2ccccc12 experimental_readout=inhibition numeric_readout=6
compound=Cn1nnnc1SCC1=C(C(=O)O)N2C(=O)[C@@H](NC(=O)[C@H](O)c3ccccc3)[C@H]2SC1 experimental_readout=inhibition numeric_readout=16
compound="COc1ccc(C(=O)CC2OC(=O)c3c2ccc(OC)c3OC)cc1 (configuration not stated)" experimental_readout=inhibition numeric_readout=8
compound="O=C(c1ccc(Cl)cc1)C1CCCN(Cc2ccc(Oc3ncccn3)cc2)C1 (configuration not stated)" experimental_readout=inhibition numeric_readout=21
compound="C/C(=N\\NC(=O)C1(C)CC1(Br)Br)c1ccc([N+](=O)[O-])cc1 (configuration not stated)" experimental_readout=inhibition numeric_readout=1
compound=COc1cc(C(=O)Nc2ccc(N(C)C)cc2)c([N+](=O)[O-])cc1OC experimental_readout=inhibition numeric_readout=7
compound=COC(=O)c1cc(OC)c(OC)cc1NC(=O)CN1C(=O)c2ccccc2C1=O experimental_readout=inhibition numeric_readout=2
compound="CC1(C)C(=O)OC(/C=C\\c2ccccc2)C(C)(C)C1=O (configuration not stated)" experimental_readout=inhibition numeric_readout=3
compound=CCOc1ncnc2c1[nH]c1ccccc12 experimental_readout=inhibition numeric_readout=8
compound=C[C@@H]1CCC[C@H](C)N1NC(=O)c1ccc(Cl)c(S(N)(=O)=O)c1 experimental_readout=inhibition numeric_readout=-5
compound=CC(=O)OCC(=O)[C@@]1(O)CC[C@H]2[C@@H]3CCC4=CC(=O)CC[C@]4(C)[C@H]3[C@@H](O)C[C@@]21C experimental_readout=inhibition numeric_readout=-2
compound=Cn1c(SCC(=O)c2ccccc2)nnc1-c1ccncc1 experimental_readout=inhibition numeric_readout=2
compound="Cc1ccc2c(c1)C1OCCC1C1N2C(=O)C2C(C(=O)O)C3C=CC21O3 (configuration not stated)" experimental_readout=inhibition numeric_readout=11
compound=COc1ccc(C(=O)CCN2CCc3cc(OC)c(OC)cc3C2)cc1 experimental_readout=inhibition numeric_readout=13
compound=COc1cc2c(cc1OC)-c1nnc(C)n1C(C)(C)C2 experimental_readout=inhibition numeric_readout=4
compound="O[C@H]1COC2C1OC[C@@H]2O (some centres not stated)" experimental_readout=inhibition numeric_readout=2
compound=Cc1ccccc1N1C(N)=NC(N)=NC1(C)C experimental_readout=inhibition numeric_readout=20
